- TEST SYSTEM: human Edg-1 receptor (Homo sapiens)
- Construct: FLAG (N); expressed in transfected cells; membrane preparation
- ASSAY EXPLANATION: GTP-γ-S assay using human Edg-1 receptors (scintillation proximity assay, CHO Flp-In cell membrane preparation)
- Assay type: biochemical
- TEST CONTEXT: test compound at 10 μM; high control 10 μM S1P regarded as 100% activation; [35S]GTP-γ-S binding, triplicate; read-out: % Activation (Edg-1 receptor activation in percent of the activation by 10 μM S1P)
RECORDED METRIC: activation at 10 µM (%)

Here is how some molecules turned out for activation at 10 µM.
{"MOLECULE": "CCCOc1nc(Oc2cnsn2)nc2oc(-c3cc(C)c(OCC(=O)O)c(C)c3)nc12", "TEST SYSTEM": "human Edg-1 receptor (Homo sapiens)", "RECORDED METRIC": "activation at 10 µM", "MEASUREMENT": 83}
{"MOLECULE": "CCCOc1nc(Oc2ccc(Cl)c(C(F)(F)F)c2)nc2oc(-c3cc(C)c(OCC(=O)O)c(C)c3)nc12", "TEST SYSTEM": "human Edg-1 receptor (Homo sapiens)", "RECORDED METRIC": "activation at 10 µM", "MEASUREMENT": 72}
{"MOLECULE": "CCCOc1nc(Oc2cc(F)cc(C(F)(F)F)c2)nc2oc(-c3cc(C)c(OCC(=O)O)c(C)c3)nc12", "TEST SYSTEM": "human Edg-1 receptor (Homo sapiens)", "RECORDED METRIC": "activation at 10 µM", "MEASUREMENT": 48}

[1] CCCOc1nc(Oc2ccc(Cl)cc2F)nc2oc(-c3cc(C)c(OCC(=O)O)c(C)c3)nc12
[2] CCCOc1nc(Oc2ccc(C)cc2F)nc2oc(-c3cc(C)c(OCC(=O)O)c(C)c3)nc12
Query: Lab notebook, comparison: 1 versus 2 , higher activation at 10 µM goes to which? Identify your pick by its label.
Reply: 1
(1: 72%, 2: 43%)

[P] CCCOc1nc(OC(C)C(F)(F)F)nc2oc(-c3cc(C)c(OCC(=O)O)c(C)c3)nc12 (stereo not shown)
[Q] CCCOc1nc(Oc2ccc(F)c(F)c2)nc2oc(-c3cc(C)c(OCC(=O)O)c(C)c3)nc12
Query: Lab notebook, comparison: P versus Q , higher activation at 10 µM goes to which? Identify your pick by its label.
Reply: P

[I] CCCOc1nc(OCC2CCCC2)nc2oc(-c3cc(C)c(OCC(=O)O)c(C)c3)nc12
[II] CCOc1nc(Oc2cc(F)ccc2F)nc2oc(-c3cc(C)c(OCC(=O)O)c(C)c3)nc12
Query: Lab notebook, comparison: I versus II , higher activation at 10 µM goes to which? Identify your pick by its label.
Reply: II

[A] CCCOc1nc(OCC2CCC2)nc2oc(-c3cc(C)c(OCC(=O)O)c(C)c3)nc12
[B] CCCOc1nc(Oc2ccc(Cl)c(F)c2)nc2oc(-c3cc(C)c(OCC(=O)O)c(C)c3)nc12
Query: Sorting ascending by activation at 10 µM, which comes first: A or B ? Identify your pick by its label.
Reply: B

====

- TEST SYSTEM: human Edg-1 receptor (Homo sapiens, UniProt P21453)
- Construct: FLAG (N); expressed in transfected cells; membrane preparation
- Sequence (P21453 whole entry): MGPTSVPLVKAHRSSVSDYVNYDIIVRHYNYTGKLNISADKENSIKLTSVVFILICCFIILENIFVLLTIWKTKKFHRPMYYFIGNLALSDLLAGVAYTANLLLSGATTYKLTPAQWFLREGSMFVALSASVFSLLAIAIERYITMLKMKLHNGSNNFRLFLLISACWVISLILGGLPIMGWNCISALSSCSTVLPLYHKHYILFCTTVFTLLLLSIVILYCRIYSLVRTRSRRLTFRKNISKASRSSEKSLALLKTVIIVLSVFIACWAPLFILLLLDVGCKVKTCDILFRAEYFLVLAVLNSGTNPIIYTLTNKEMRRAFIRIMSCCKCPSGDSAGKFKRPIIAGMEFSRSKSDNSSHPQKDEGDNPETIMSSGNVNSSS
- ASSAY EXPLANATION: GTP-γ-S assay using human Edg-1 receptors (scintillation proximity assay, CHO Flp-In cell membrane preparation)
- Format: biochemical
- TEST CONTEXT: test compound at 10 μM; high control 10 μM S1P regarded as 100% activation; [35S]GTP-γ-S binding, triplicate; read-out: % Activation (Edg-1 receptor activation in percent of the activation by 10 μM S1P)
RECORDED METRIC: activation at 10 µM (%)

Here is how some compounds turned out for activation at 10 µM.
{"SMILES STR": "CCCOc1nc(Oc2cccc3c2CCC3)nc2oc(-c3cc(C)c(OCC(=O)O)c(C)c3)nc12", "MEASUREMENT": 54}
{"SMILES STR": "CCCOc1nc(Oc2ccc3ncsc3c2)nc2oc(-c3cc(C)c(OCC(=O)O)c(C)c3)nc12", "MEASUREMENT": 102}
{"SMILES STR": "CCCOc1nc(Oc2ccc3c(c2)CCC3)nc2oc(-c3cc(C)c(OCC(=O)O)c(C)c3)nc12", "MEASUREMENT": 55}
{"SMILES STR": "CCCOc1nc(OCC)nc2oc(-c3cc(C)c(OCC(=O)O)c(C)c3)nc12", "MEASUREMENT": 70}
{"SMILES STR": "CCCOc1nc(Oc2cnc3ccccc3c2)nc2oc(-c3cc(C)c(OCC(=O)O)c(C)c3)nc12", "MEASUREMENT": 75}

[1] CCCOc1nc(Oc2cccnc2)nc2oc(-c3cc(C)c(OCC(=O)O)c(C)c3)nc12
[2] CCCOc1nc(Oc2ccc(F)c(Cl)c2)nc2oc(-c3cc(C)c(OCC(=O)O)c(C)c3)nc12
Query: Sorting ascending by activation at 10 µM, which comes first: 1 or 2 ? Identify your pick by its label.
Reply: 2
